What GI50 was measured for each of the following?
System: NCI-H226
Method description: NCI tumour cell line growth inhibition, 48 h
The source made the active and inactive calls. Rule as the data show it: active = GI50 up to about 1.1 µM and inactive = higher.

Consider the reported GI50 for these compounds:
COc1cccc(Nc2nc(N)nc(N)c2N)c1 ... > 100 µM (inactive)
CC(C)c1cccc(C(C)C)c1NC(=O)C(=O)Cc1nc2ccc([N+](=O)[O-])cc2nc1O ... > 100 µM (inactive)
CN(/N=C(\C(=O)O)c1ccccc1)C1=NCCN1 ... > 100 µM (inactive)
CCN(CC)C(=S)N/N=C(\C)c1ccccc1O ... 20.7 µM (inactive)
CCOC(=O)NCC(=O)NCC(=O)NCC(N)=O ... > 100 µM (inactive)
CC(C)CC(N)C(=O)OCN1C(=O)C2C3C=CC(C2C1=O)C1C2C(=O)N(COC(=O)C(N)CC(C)C)C(=O)C2C31 (stereo not given) ... > 100 µM (inactive)
N#Cc1c(-c2ccccc2)c(C#N)c(=S)n(C2OC(CO)C(O)C(O)C2O)c1N (stereo not given) ... > 100 µM (inactive)
CC1Nc2ccccc2NC1C=C(C#N)C#N (stereo not given) ... 17.3 µM (inactive)
Cn1c2c(c3ccccc31)CC(=S)N1CCCC(CC2O)C1 (stereo not given) ... > 100 µM (inactive)

// next entry
Data request: Entry CCN(CC)CCC(=O)OC1C(C)=CC(C)C(=O)CC(C(C)CC2CCC(O)C(OC)C2)OC(=O)C2CCCCN2C(=O)C(=O)[C@@]2(O)OC(CCC2C)CC(OC)\C(C)=C/C=C/C=C/C(C)CC(C)C(=O)C1OC (stereo not given in full) : reported GI50 = ?
Data returned: 12.9 µM (inactive)

----------
What GI50 was measured for each of the following?
Test system: EKVX
Method description: NCI tumour cell line growth inhibition, 48 h
The source made the active and inactive calls. Cut-off read from the data, not from the text of the source: active = GI50 up to about 1.1 µM and inactive = higher.

Consider the reported GI50 for these molecules:
O=C1C2=Cc3ccccc3CCN2c2ccccc21 ... 29 µM (inactive)
CCOC(=O)C(OP(=O)(OCC)OCC)C(F)(F)F (stereo not given) ... > 100 µM (inactive)

Can you give me GI50 for all of these, one by one?
1. CC(C)Oc1cccc(N2C(CCc3c[nH]c4ccc(Br)cc34)=NS(=O)(=O)c3cnccc32)c1
2. COC(=O)c1cccc(OC)c1C#Cc1c(OC)cccc1OC
3. O=C(N/N=C\c1ccc([N+](=O)[O-])cc1)c1ccccc1Nc1ccccc1C(=O)N/N=C/c1ccc([N+](=O)[O-])cc1

Data returned:
29.2 µM (inactive)
> 100 µM (inactive)
> 100 µM (inactive)

----------
Test system: 786-0
Method description: NCI tumour cell line growth inhibition, 48 h
Activity calls are given as the source filed them. Rule as the data show it: active = GI50 up to about 1.1 µM and inactive = higher.
Observation type: GI50

Can you give me GI50 for all of these, one by one?
1. OC1(c2ccccc2)OC(C#Cc2ccccc2)(c2ccccc2)c2ccccc21 (centres undefined)
2. Cc1nc(N)sc1/N=N/c1cc(Cl)c([N+](=O)[O-])cc1Cl
3. O=c1c2ccccc2nc(-c2ccccc2)n1NC(=S)Nc1ccc(Cl)cc1[N+](=O)[O-]
4. CCOC(=O)c1cc2c(OCc3ccccc3)c(OC)cc3c2c(n1)N(c1ccc(OC)cc1)C(C)C3 (centres undefined)

Data returned:
1. 3.73 µM (inactive)
2. 19.7 µM (inactive)
3. > 100 µM (inactive)
4. > 50 µM (inactive)

----------
Tested on: UACC-62
Method description: NCI tumour cell line growth inhibition, 48 h
Activity calls are given as the source filed them. Cut-off read from the data, not from the text of the source: active = GI50 up to about 1.1 µM and inactive = higher.
Observation type: GI50

Consider the reported GI50 for these molecules:
CN1CCN(CCCCNc2cc3c4ccccc4c(NCCCCN4CCN(C)CC4)cc3c3ccccc23)CC1 ... 2.28 µM (inactive)
Cc1c2c(OCCCCN3CCN(c4ncccn4)CC3)nn(C)c(=O)c2c(C)n1-c1ccccc1 ... 16.8 µM (inactive)
COC(=O)/C=C/[C@H]1[C@H](C)N1S(=O)(=O)c1ccc(C)cc1 (stereo not given in full) ... > 100 µM (inactive)

Can you give me GI50 for all of these, one by one?
1. CCOC(=O)C(NC(=O)CC(C)C)(N1CCN(c2cc3c(cc2F)c(=O)c(C(=O)O)cn3C2CC2)CC1)C(F)(F)F (stereo not given)
2. CC1C2CC(CC2=O)C1(C)C (stereo not given)
3. CCN(CC)C(=S)N/N=C(\C)c1ccccc1O

Data returned:
15.2 µM (inactive)
> 100 µM (inactive)
10.9 µM (inactive)

----------
Test system: CCRF-CEM
Method description: NCI tumour cell line growth inhibition, 48 h
Activity calls are given as the source filed them. Cut-off read from the data, not from the text of the source: active = GI50 up to about 1.1 µM and inactive = higher.
Observation type: GI50

Consider the reported GI50 for these compounds:
O=C(O)CCc1nc2c(n1-c1ccccc1)C(=O)c1ccccc1C2=O ... > 100 µM (inactive)
COc1ccc(N(C(=O)Nc2ccc(Cl)c(Cl)c2)c2ccccc2)cc1 ... > 10 µM (inactive)
CC1=C(C(=O)OCCc2ccc([N+](=O)[O-])cc2)C(c2ccccc2[N+](=O)[O-])C(C(=O)OC(C)C)=C(C)N1 (stereo not given) ... 2.36 µM (inactive)

Can you give me GI50 for all of these, one by one?
1. CC1(C)CC(=O)c2c(nc(SSc3nc4c(c(-c5ccccc5)c3C#N)C(=O)CC(C)(C)C4)c(C#N)c2-c2ccccc2)C1
2. COC(=O)C1Cc2c(OC)ccc(OC)c2CC(C(=O)OC)C1=O (stereo not given)

Data returned:
["> 10 µM (inactive)", "> 100 µM (inactive)"]

----------
Tested on: HCT-116
Method description: NCI tumour cell line growth inhibition, 48 h
The source made the active and inactive calls. Rule as the data show it: active = GI50 up to about 1.1 µM and inactive = higher.
The reply should name one outcome from active, inactive

Before answering, review these 2 worked examples.
COc1cc(OC)c2nccc(NCCCN(C)C)c2c1[N+](=O)[O-] ... inactive
c1cc2[se][se]c3c4cccc5[se][se]c(c(c1)c23)c54 ... inactive

Data request: Call for entry "C=CC(=O)N1C/C(=C\c2ccc(N(C)C)cc2)C(=O)/C(=C/c2ccc(N(C)C)cc2)C1" :
Data returned: inactive

Data request: Request: "Brc1ccccc1-c1ncc(-c2ccccc2)o1"
Data returned: inactive

Data request: Request: "Cc1cccc2c(NCCN(C)C)c3cccc(C(=O)NCCN(C)C)c3nc12"
Data returned: active

----------
System: IGROV-1
Method description: NCI tumour cell line growth inhibition, 48 h
Active and inactive are the calls of the source. No stated cut-off is given here; in the data, active = GI50 up to about 1.1 µM and inactive = higher.
The reply should name one outcome from Yes = active, No = inactive

Before answering, review these 5 worked examples.
O=[N+]([O-])c1cc(Cl)ccc1S(=O)(=O)N1CCCc2cc(Cl)ccc21 ... No
CCOC(=O)NCC(=O)NCC(=O)NCC(N)=O ... No
COc1cc(CNc2ccc(C)cc2)cc(OC)c1OC ... Yes
Oc1c(C(O)(c2ccccc2)c2ccc3ccccc3c2O)ccc2ccccc12 ... No
NCc1ccc(O)c(O)c1 ... No

Data request: Call for entry "Nc1ccc(-c2nc3ccccc3s2)cc1CO" :
Data returned: No

Data request: Request: "O/N=C1\CCc2nonc2\C1=N/Nc1ccccc1"
Data returned: No

Data request: Request: "COc1ccc(C[n+]2cccc(O)c2)cc1"
Data returned: No

Data request: Request: "O=[N+]([O-])C(/C=C(\Cl)[N+](=O)[O-])=C(Nc1ccccc1)Nc1ccccc1"
Data returned: No

Data request: Request: "CC(=O)NNc1nc(C)c(C(=O)/C=C/c2ccccc2Cl)s1"
Data returned: No

Data request: Request: COc1cc(C2Oc3cc(-c4oc5cc(O)cc(O)c5c(=O)c4O)ccc3OC2CO)ccc1O (configuration not stated) [DEHYDROSILYLBIN]
Data returned: No

Data request: Request: COC(=O)C(=O)C(C#N)c1ccc(Cl)c(Cl)c1 (configuration not stated)
Data returned: No

----------
Test system: SK-MEL-28
Method description: NCI tumour cell line growth inhibition, 48 h
The source made the active and inactive calls. No stated cut-off is given here; in the data, active = GI50 up to about 1.1 µM and inactive = higher.
The reply should name one outcome from TRUE (active), FALSE (inactive)

Before answering, review these 2 worked examples.
O=c1c2ccccc2nc(-c2ccccc2)n1NC(=S)Nc1ccc(Cl)cc1[N+](=O)[O-] ... FALSE
CC(=O)Nc1ccc(S(=O)(=O)/N=c2/sc(S(N)(=O)=O)nn2C)cc1 ... FALSE

Data request: Call for entry "Cc1nc(=O)n2c(C)n[nH]c2c1C(=O)Nc1cc(Cl)cc(Cl)c1" :
Data returned: FALSE

Data request: Request: "CC(C)(CN1CCCCC1)C(/C=C/c1ccccc1)=N\NC(=O)N/N=C(/C=C/c1ccccc1)C(C)(C)CN1CCCCC1"
Data returned: FALSE

Data request: Request: "O=[N+]([O-])c1ccc(NN/N=N/c2ccc(-c3nc4ccccc4[nH]3)cc2)c([N+](=O)[O-])c1"
Data returned: FALSE

----------
Test system: Malme-3M
Method description: NCI tumour cell line growth inhibition, 48 h
The source made the active and inactive calls. Cut-off read from the data, not from the text of the source: active = GI50 up to about 1.1 µM and inactive = higher.
The reply should name one outcome from YES for active, NO for inactive

Before answering, review these 2 worked examples.
CNC/C(Cl)=N/S(=O)(=O)c1ccc(C)cc1 ... NO
COC(=O)C1Cc2c(OC)ccc(OC)c2CC(C(=O)OC)C1=O (centres undefined) ... NO

Data request: Call for entry COc1ccc(C(CC(=O)C(C)(C)CN2CCCCC2)SCCS(=O)(=O)O)cc1 (centres undefined) :
Data returned: NO

Data request: Request: "O=c1c(-c2ccccc2)c(SCCN2CCCCCC2)n(-c2ccccc2)c(=S)n1-c1ccccc1"
Data returned: NO

Data request: Request: "O=C(N/N=C\c1ccc([N+](=O)[O-])cc1)c1ccccc1Nc1ccccc1C(=O)N/N=C/c1ccc([N+](=O)[O-])cc1"
Data returned: NO

Data request: Request: "Cc1ccc2c(c1)NC(=O)CCSSCCC(=O)N2"
Data returned: NO

Data request: Request: "O=c1c2ccccc2c(=O)n2n1-c1cccc(c1)CSSCc1cccc-2c1"
Data returned: NO

Data request: Request: CC1=CC2=C(C(N)=O)C(=O)OC2(C)C(c2ccccc2)C1 (centres undefined)
Data returned: NO

Data request: Request: COc1cccc2c1C(=O)c1c(O)c3c(c(O)c1C2=O)C[C@@](O)(C(C)=O)C[C@@H]3OC1CC(O)C(O)C(C)O1 (some centres undefined)
Data returned: YES
